- Target or test system: human HER2/ErbB2 (Homo sapiens)
- Sequence (P04626 676-1255): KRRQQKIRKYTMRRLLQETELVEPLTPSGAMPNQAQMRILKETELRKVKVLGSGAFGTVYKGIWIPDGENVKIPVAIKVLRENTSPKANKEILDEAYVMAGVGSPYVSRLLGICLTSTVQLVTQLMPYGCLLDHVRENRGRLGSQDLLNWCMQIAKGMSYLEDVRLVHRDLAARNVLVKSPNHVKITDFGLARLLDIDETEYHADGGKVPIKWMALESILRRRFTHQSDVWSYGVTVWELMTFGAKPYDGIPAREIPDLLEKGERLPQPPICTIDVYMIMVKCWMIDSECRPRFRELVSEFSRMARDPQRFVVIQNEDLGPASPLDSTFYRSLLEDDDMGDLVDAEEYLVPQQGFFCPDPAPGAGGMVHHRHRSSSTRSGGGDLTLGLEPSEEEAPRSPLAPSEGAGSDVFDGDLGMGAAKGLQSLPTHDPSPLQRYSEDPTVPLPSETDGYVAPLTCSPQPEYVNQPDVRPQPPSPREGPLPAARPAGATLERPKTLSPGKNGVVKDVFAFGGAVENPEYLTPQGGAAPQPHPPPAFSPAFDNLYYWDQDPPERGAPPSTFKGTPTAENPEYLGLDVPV
- Assay info: HTScan Receptor Kinase Assay, HER2/ErbB2;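 note: europium time-resolved fluorescence detection of anti-phosphotyrosine antibody binding to biotinylated FLT3 (Tyr589) peptide phosphorylated by the kinase, 30 min reaction at room temperature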
Measure: IC50

Task: Field request: IC50 | item: `C[C@@H](Nc1ncnc2[nH]c(-c3ccc(C(=O)NCCNCCCCCCC(=O)NO)cc3)cc12)c1ccccc1`
Output: 100 to 1000 nM

Task: Field request: IC50 | item: `C[C@@H](Nc1ncnc2[nH]c(-c3ccc(C(=O)NO)cc3)cc12)c1ccc(F)cc1`
Output: 100 to 1000 nM

Task: Field request: IC50 | item: `C[C@@H](Nc1ncnc2[nH]c(-c3ccc(NCCCCCC(=O)NO)cc3)cc12)c1ccccc1`
Output: < 100 nM

Task: Field request: IC50 | item: `C[C@@H](Nc1ncnc2[nH]c(-c3ccc(OCCCCCCC(=O)NO)cc3)cc12)c1ccc(F)cc1`
Output: 100 to 1000 nM

Task: Field request: IC50 | item: `C[C@@H](Nc1ncnc2[nH]c(-c3ccc(NC(=O)CCCC(=O)NO)cc3)cc12)c1ccccc1`
Output: 100 to 1000 nM

Task: Field request: IC50 | item: `C[C@@H](Nc1ncnc2[nH]c(-c3ccc(CNCCCCCCC(=O)NO)cc3)cc12)c1ccccc1`
Output: 100 to 1000 nM

Task: Field request: IC50 | item: `C[C@@H](Nc1ncnc2[nH]c(-c3ccc(NC(=O)CCCCCCC(=O)NO)cc3)cc12)c1ccccc1`
Output: 100 to 1000 nM

Task: Field request: IC50 | item: `C[C@@H](Nc1ncnc2[nH]c(-c3ccc(OCCCCCCC(=O)NO)cc3)cc12)c1ccccc1`
Output: 100 to 1000 nM

Task: Field request: IC50 | item: `C[C@@H](Nc1ncnc2[nH]c(-c3ccc(OCCNCCCCCCCC(=O)NO)cc3)cc12)c1ccccc1`
Output: < 100 nM

Task: Field request: IC50 | item: `C[C@@H](Nc1ncnc2[nH]c(-c3ccc(CNCCCCCC(=O)NO)cc3)cc12)c1ccccc1`
Output: 100 to 1000 nM

Task: Field request: IC50 | item: `C[C@@H](Nc1ncnc2[nH]c(-c3ccc(CNCc4ccc(C(=O)NO)cc4)cc3)cc12)c1ccccc1`
Output: 100 to 1000 nM

Task: Field request: IC50 | item: `C[C@@H](Nc1ncnc2[nH]c(-c3ccc(C(=O)NCCNCCC(=O)NO)cc3)cc12)c1ccccc1`
Output: 100 to 1000 nM

Task: Field request: IC50 | item: `C[C@@H](Nc1ncnc2[nH]c(-c3ccc(OCCNCCCCCCC(=O)NO)cc3)cc12)c1ccccc1`
Output: < 100 nM

Task: Field request: IC50 | item: `C[C@@H](Nc1ncnc2[nH]c(-c3ccc(CNCC(=O)NO)cc3)cc12)c1ccccc1`
Output: 1000 to 10000 nM

Task: Field request: IC50 | item: `C[C@@H](Nc1ncnc2[nH]c(-c3ccc(CN4CCN(CC(=O)NO)CC4)cc3)cc12)c1ccccc1`
Output: < 100 nM
